System: p38-gamma;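 note: KINOMEscan kinase panel screen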
Construct: gene MAPK12
Settings: concentration: 1 μM, replicates: in singlicate; n = 1
quantity.name: %Inh (%)

>  <test.smiles>
Cn1ccc2ncnc(Oc3ccc(NC(=O)Nc4ccccc4)cc3)c21

>  <quantity.name>
%Inh

>  <recorded.measurement>
0

$$$$
>  <test.smiles>
CCn1c(-c2ccccn2)nc2cnccc21

>  <quantity.name>
%Inh

>  <recorded.measurement>
0

$$$$
>  <test.smiles>
Cn1ccc2ncnc(Oc3cccc(C(=O)Nc4ccccc4)c3)c21

>  <quantity.name>
%Inh

>  <recorded.measurement>
0

$$$$
>  <test.smiles>
CCn1c(-c2cccnc2O)nc2cnccc21

>  <quantity.name>
%Inh

>  <recorded.measurement>
0

$$$$
>  <test.smiles>
COc1ccc2nc(-c3cccc(C)n3)nc(Nc3ccncc3)c2c1

>  <quantity.name>
%Inh

>  <recorded.measurement>
0

$$$$
>  <test.smiles>
Cn1cncc1-c1ccc2ncnc(Nc3ccc(OCc4ccccc4)cc3)c2c1

>  <quantity.name>
%Inh

>  <recorded.measurement>
0

$$$$
>  <test.smiles>
Cn1ccc2ncnc(Oc3ccc(Nc4nc5ccccc5[nH]4)cc3)c21

>  <quantity.name>
%Inh

>  <recorded.measurement>
0

$$$$
>  <test.smiles>
C[C@@H]1CCCCN1c1cc(-c2ccc3c(N)n[nH]c3c2)nc(N)n1

>  <quantity.name>
%Inh

>  <recorded.measurement>
0

$$$$
>  <test.smiles>
O=C(Nc1ccccc1)Nc1cccc(Oc2ccc3nccn3n2)c1

>  <quantity.name>
%Inh

>  <recorded.measurement>
19

$$$$
>  <test.smiles>
Cc1cccc(-c2nc(C)cc(Nc3ccncc3)n2)n1

>  <quantity.name>
%Inh

>  <recorded.measurement>
6

$$$$
